System: OACM5-1 (Esophageal Adenocarcinoma)
assaySummary: combination Emax (second highest fraction inhibited in the dose matrix, 72 h); higher = more inhibition; extreme values may be limits of the assay

| compound | combination Emax |
| --- | --- |
| C[C@@H](c1ccc2nccn2c1)n1nnc2ncc(-c3cnn(C)c3)nc21 [Savolitinib] + CN(CC[C@H](CSC1=CC=CC=C1)NC2=C(C=C(C=C2)S(=O)(=O)NC(=O)C3=CC=C(C=C3)N4CCC(CC4)[C@H](C5=CC=CC=C5C6=CC=C(C=C6)Cl)O)S(=O)(=O)C(F)(F)F)CCO [AZD4320] (first compound max 1 µM, 7x7, partner max 1 µM) | 0.216 |
| CS(=O)(=O)CCNCc1ccc(-c2ccc3ncnc(Nc4ccc(OCc5cccc(F)c5)c(Cl)c4)c3c2)o1 [Lapatinib] + C[C@@H](Oc1cc(-c2cnn(C3CCNCC3)c2)cnc1N)c1c(Cl)ccc(F)c1Cl [Crizotinib] (first compound max 10 µM, 7x7, partner max 10 µM) | 0.889 |
| NC1(C(=O)N[C@@H](CCO)c2ccc(Cl)cc2)CCN(c2ncnc3[nH]ccc23)CC1 [Capivasertib] + C[C@@H]1COCCN1C2=NC(=NC(=C2)C3(CC3)[S@](=N)(=O)C)C4=C5C=CNC5=NC=C4 [AZD6738] (first compound max 10 µM, 7x7, partner max 10 µM) | 0.774 |
| COc1cccc(OCCCN)c1-c1cc(Nc2cnc(C#N)cn2)n[nH]1 [Prexasertib] + CN(C)CCCOc1ccc(-c2ccc3ncc4c(c3c2)n(C2CCOCC2)c(=O)n4C)cn1 [AZD0156] (first compound max 1 µM, 7x7, partner max 1 µM) | 0.624 |
| CN(C)CCCOc1ccc(-c2ccc3ncc4c(c3c2)n(C2CCOCC2)c(=O)n4C)cn1 [AZD0156] + C[C@@H]1COCCN1C2=NC(=NC(=C2)C3(CC3)[S@](=N)(=O)C)C4=C5C=CNC5=NC=C4 [AZD6738] (first compound max 1 µM, 7x7, partner max 10 µM) | 0.57 |
| CCN(CCO)CCCOc1ccc2c(Nc3cc(CC(=O)Nc4cccc(F)c4)[nH]n3)ncnc2c1 [AZD2811] + C=CCn1c(=O)c2cnc(Nc3ccc(N4CCN(C)CC4)cc3)nc2n1-c1cccc(C(C)(C)O)n1 [AZD1775] (first compound max 1 µM, partner max 1 µM) | 0.339 |
| Cn1cnc2c(F)c(Nc3ccc(Br)cc3Cl)c(C(=O)NOCCO)cc21 [Selumetinib] + C=CCn1c(=O)c2cnc(Nc3ccc(N4CCN(C)CC4)cc3)nc2n1-c1cccc(C(C)(C)O)n1 [AZD1775] (first compound max 10 µM, partner max 1 µM) | 0.642 |
